Tested on: High Density cholesterol (Chl Large) plaque particles
Assay: Mass spectroscopy proteomics, semi-quantitative binding affinity of serum proteins (plaqueproteome, Table 2)
Design: species or system human
Conditions: higher number = stronger affinity
Experimental: The goal was to isolate plaque particles synthesized in the bio-fluids in a relatively pure form to enable their subsequent use for identification of components that contribute to the plaque formation. […] All MS/MS samples were analyzed using Sequest (Thermo Fisher Scientific, San Jose, Calif., USA; version 1.0). […]
Measured metric: Semi-quantitative analysis of proteins binding to different plaque particles: Chl Large
Give bare numbers.

Molecule	Obs value
Ig gamma-2 chain C region (protein) ASTKGPSVFPLAPCSRSTSESTAALGCLVKDYFPEPVTVSWNSGALTSGVHTFPAVLQSSGLYSLSSVVTVPSSNFGTQTYTCNVDHKPSNTKVDKTVERKCCVECPPCPAPPVAGPSVFLFPPKPKDTLMISRTPEVTCVVVDVSHEDPEVQFNWYVDGVEVHNAKTKPREEQFNSTFRVVSVLTVVHQDWLNGKEYKCKVSNKGLPAPIEKTISKTKGQPREPQVYTLPPSREEMTKNQVSLTCLVKGFYPSDISVEWESNGQPENNYKTTPPMLDSDGSFFLYSKLTVDKSRWQQGNVFSCSVMHEALHNHYTQKSLSLSPGK	12

Moving on to another molecule below.
Would you kindly share the measured Semi-quantitative analysis of proteins binding to different plaque particles: Chl Large for CD5 antigen-like (protein) SPSGVRLVGGLHRCEGRVEVEQKGQWGTVCDDGWDIKDVAVLCRELGCGAASGTPSGILYEPPAEKEQKVLIQSVSCTGTEDTLAQCEQEEVYDCSHDEDAGASCENPESSFSPVPEGVRLADGPGHCKGRVEVKHQNQWYTVCQTGWSLRAAKVVCRQLGCGRAVLTQKRCNKHAYGRKPIWLSQMSCSGREATLQDCPSGPWGKNTCNHDEDTWVECEDPFDLRLVGGDNLCSGRLEVLHKGVWGSVCDDNWGEKEDQVVCKQLGCGKSLSPSFRDRKCYGPGVGRIWLDNVRCSGEEQSLEQCQHRFWGFHDCTHQEDVAVICSG ? 6
